assay: NCI Yeast Anticancer Drug Screen. Data for the sgs1 mgt1 strain (AID 161);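 note: 0% = growth of cultures given vehicle only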; details: S. cerevisiae sgs1 mgt1 strain, at 50.0 µM, active compounds read high
The panel holds about 79,000 compounds, 15% with a hit somewhere; the sample as a whole holds those more often.
Binary call on growth inhibition: Fulfilled from 90% upward, Not fulfilled beneath that.

- compound: "c1cc[c]([Sn]([c]2ccccc2)([c]2ccccc2)[CH]2CCCCC2)cc1"
  discrete label: "Fulfilled"
- compound: "C[CH2][Sn]([CH2]C)([CH2]C)[O]C(=O)CO"
  discrete label: "Not fulfilled"
- compound: "CCCCCCC[CH2][Sn]([F])([F])[CH2]CCCCCCC"
  discrete label: "Not fulfilled"
- compound: "Cc1ccc(C(Cc2ccc(N3C(N)=NC(N)=NC3(C)C)cc2)C(=O)Nc2ccc(S(=O)(=O)F)cc2)cc1 (stereo unspecified)"
  discrete label: "Fulfilled"
- compound: "CC[N-]c1nnnn1CC.[Au+].c1ccc([PH+](c2ccccc2)c2ccccc2)cc1"
  discrete label: "Fulfilled"
- compound: "O=[N+]([O-])O.[NH-]C1CCCCC1[NH-].[NH-]C1CCCCC1[NH-].[NH-]C1CCCCC1[NH-].[OH-].[OH-].[OH-].[Pt+4].[Pt+4].[Pt+4] (stereo unspecified)"
  discrete label: "Not fulfilled"
- compound: "O=C(CI)NCc1ccccc1"
  discrete label: "Fulfilled"
- compound: "CN(Cc1ccccc1)CC(O)c1ccc(Cl)cc1 (stereo unspecified)"
  discrete label: "Not fulfilled"
- compound: "ClCCN(CCCl)c1ccc(C2N(Cc3ccc(N(CCCl)CCCl)cc3Cl)CCCN2Cc2ccc(N(CCCl)CCCl)cc2Cl)cc1"
  discrete label: "Fulfilled"
- compound: "CC1(O)CC([CH2][Hg][I])OC([CH2][Hg][I])C1 (stereo unspecified)"
  discrete label: "Fulfilled"
- compound: "O=[N+]([O-])C(Br)(Br)CCC(Br)(Br)[N+](=O)[O-]"
  discrete label: "Not fulfilled"
- compound: "O=P(c1ccccc1)(c1ccccc1)c1ccccc1.O=P(c1ccccc1)(c1ccccc1)c1ccccc1.S=C=[N][Sn]([N]=C=S)([N]=C=S)[c]1ccccc1"
  discrete label: "Fulfilled"
- compound: "CC(=O)O[C@H]1CC[C@H]2[C@@H]3CCC4=CC(=O)CC[C@@H]4[C@H]3CC[C@]12C"
  discrete label: "Fulfilled"
- compound: "CC[C@]1(O)CC(OC2CC(N(C)C)C(O)C(C)O2)c2c(cc3c(c2O)C(=O)c2c(O)cccc2C3=O)[C@@H]1C(=O)OC (stereo partly specified)"
  discrete label: "Fulfilled"
- compound: "C=C(C)C1(CCCC)C(=O)NC(=S)NC1=O"
  discrete label: "Not fulfilled"
- compound: "COc1ccccc1[As]=O (stereo unspecified)"
  discrete label: "Fulfilled"
- compound: "CC1=C[n+]2cc(C)ccc2Sc2c1ccc1ccccc21"
  discrete label: "Not fulfilled"

---

experiment: NCI Yeast Anticancer Drug Screen. Data for the rad50 strain (AID 155);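 note: 0% = growth of vehicle-only cultures of the same strain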; settings: S. cerevisiae rad50 strain growth inhibition; at 11.0 µM
Compounds without any hit were thinned out: in the full panel of roughly 79,000, 15% have a hit. Calls of active or inactive are those of the source. Rule as the data show it: active = growth inhibition above about 70%; inactive = the rest.
Outcomes: active, inactive

- compound: "Nc1nc(-c2ccccc2)c(-c2ccccc2)[se]1"
  discrete label: "inactive"
- compound: "OC1(c2ccccc2)CC2CCC(C1)N2CCCC(O)(c1ccccc1)c1ccccc1 (centres undefined)"
  discrete label: "inactive"
- compound: "CSC(=Nc1ccccc1)N(c1ccccc1)c1nc(=[N+](C)C)ss1"
  discrete label: "active"
- compound: "Br[Se]c1ccccn1"
  discrete label: "active"

---

test: NCI Yeast Anticancer Drug Screen. Data for the rad50 strain (AID 155);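 note: 0% = growth of vehicle-only cultures of the same strain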; details: S. cerevisiae rad50 strain growth inhibition; at 33.0 µM; active compounds read high
The panel holds about 79,000 compounds, 15% with a hit somewhere; the sample as a whole holds those more often.
Reported growth inhibition by item:
property measured: growth inhibition (%)

- compound: "CCC(=O)OC1CCn2c1nc1c2C(=O)C(C)=C(N2CC2)C1=O (stereo unspecified)"
  observed result: 34
- compound: "CCCCCCCCCCCCCCCCP(=O)(O)OP(=O)(O)OCC1OC(n2ccc(N)nc2=O)C(O)C1O (stereo unspecified)"
  observed result: 0
- compound: "CS(=O)(=O)OCCN(CCOS(C)(=O)=O)c1ccc(C=O)cc1"
  observed result: 80
- compound: "O=C(O)C1C2C=CC(C2)C1c1ccccc1 (stereo unspecified)"
  observed result: 0
- compound: "CNC(=O)OCC1C2=C(C(=O)C(C)=C(N)C2=O)N2CC3C(N3C)C12OC (stereo unspecified)"
  observed result: 22
- compound: "Cc1nc2ccccc2cc1C[N+]12CN3CN(CN(C3)C1)C2"
  observed result: 25
- compound: "CC1=C2C(=C[C@@](C)(CO)[C@@H]2O)C(=O)[C@](C)(O)C12CC2"
  observed result: 31
- compound: "O=C(O)CCCc1cc(I)c(N(CCCl)CCCl)c(I)c1"
  observed result: 45
- compound: "BrCC[N+]12CC[N+](CCBr)(CC1)C2"
  observed result: 87
- compound: "CCNC(=O)OCC1C2=C(C(=O)C(C)=C(N)C2=O)N2CC3C(N3C)C12OC (stereo unspecified)"
  observed result: 57
- compound: "O=Cc1ccc(C(F)(F)F)cc1.[C-]#[O+].[C-]#[O+].[C-]#[O+].[Cr]"
  observed result: 38

---

test: NCI Yeast Anticancer Drug Screen. Data for the sgs1 mgt1 strain (AID 161);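 note: 0% = growth of cultures given vehicle only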; details: S. cerevisiae sgs1 mgt1 strain, at 50.0 µM, active compounds read high
The panel holds about 79,000 compounds, 15% with a hit somewhere; the sample as a whole holds those more often.

- molecule: "COC12[C@@H]3N[C@@H]3CN1C1=C(C(=O)C(NCCSSCCNC3=C(C)C(=O)C4=C(C3=O)C(COC(N)=O)[C@]3(OC)C5N[C@@H]5CN43)=C(C)C1=O)[C@@H]2COC(N)=O (stereo not given in full)"
  growth inhibition, %: 3.55
- molecule: "c1ccc2cc3n[se]nc3cc2c1"
  growth inhibition, %: 45.2
- molecule: "CCN1/C(=C\\c2ccc3cc(C)ccc3[n+]2CC)[Se]c2ccccc21"
  growth inhibition, %: 99.5
- molecule: "O=C1c2ccc3ccccc3c2CCC1N1CCCCC1 (stereo not given)"
  growth inhibition, %: 99.2
- molecule: "Oc1cccc2cccnc12 (tested in a mixture with another compound)"
  growth inhibition, %: 64

---

Assay: NCI Yeast Anticancer Drug Screen. Data for the sgs1 mgt1 strain (AID 161);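 note: 0% = growth of cultures given vehicle only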
Conditions: S. cerevisiae sgs1 mgt1 strain, at 50.0 µM (retest, dose inferred, filed as 5.0), active compounds read high
Experimental: Growth inhibition of yeast strains with defined genetic alterations is measured as a screen for potential anti-cancer activity. Selected strains with alterations in DNA damage repair or cell cycle control were exposed to compounds and growth inhibition was measured relative to vehicle treated controls. The strain used in this assay is sgs1 mgt1
This is part of a sample that, as a whole, favours compounds with a hit. Of some 79,000 tested, about 15% had one in any assay.

- compound: "C1CC[N-]CC1.CC(=N\\O)/C(C)=N/O.CC(=N\\O)/C(C)=N/O.OC1[CH-]CCCC1.[Co+2]"
  growth inhibition, %: 25
- compound: "Cc1cc(C)[n+](CCOc2ccc(/C(=C(/Cl)c3ccccc3)c3ccccc3)cc2)c(C)c1"
  growth inhibition, %: 73
- compound: "[Ni+2].[SH2+]C([SH2+])=Nc1ccccc1.[SH2+]C([SH2+])=Nc1ccccc1.c1ccc(C[P+](c2ccccc2)(c2ccccc2)c2ccccc2)cc1"
  growth inhibition, %: 91
- compound: "CCCCCCCC[N+](CCCC)(CCCC)CCCC (tested in a mixture with another compound)"
  growth inhibition, %: 100
- compound: "CC[C@](O)(C(=O)O)c1cc2n(c(=O)c1CO)Cc1cc3ccccc3nc1-2"
  growth inhibition, %: 97
- compound: "O=S(=O)(O)/C(=C\\c1ccccc1)c1ccccc1 (tested in a mixture with another compound)"
  growth inhibition, %: 3
- compound: "CCCCC(CC)CNP(=S)(NCC(CC)CCCC)NCC(CC)CCCC (stereo not drawn)"
  growth inhibition, %: 27
- compound: "C[C@]12CCc3nonc3C1CC[C@@H]1C2CC[C@]2(C)C(=O)CCC12 (stereo partly drawn)"
  growth inhibition, %: 73

---

assay: NCI Yeast Anticancer Drug Screen. Data for the CLN2oe strain (AID 163);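 note: 0% = growth of vehicle-only control cultures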; details: S. cerevisiae CLN2oe strain, at 100.0 µM
About 79,000 compounds went through this panel and 15% of them were active in at least one assay; those are over-represented in the sample as a whole. Active and inactive are the calls of the source. Cut-off read from the data, not from the text of the source: active = growth inhibition above about 70%; inactive = the rest.
Outcomes: active, inactive

- compound: "CCOP(=O)(CC(C)P(=O)(OCC)OCC)OCC.C[CH2][Sn]([Cl])([Cl])[CH2]C (centres undefined)"
  discrete label: "active"
- compound: "CCC1(O)C(=O)OCc2c1cc1n(c2=O)Cc2cc3ccccc3nc2-1 (centres undefined)"
  discrete label: "inactive"
- compound: "CC12CCC(C1)C(C)(C)C2OC(=O)c1ccccc1N (centres undefined)"
  discrete label: "inactive"
- compound: "COC1CC(CC2CCC(C)C(C(C)C(=O)O)O2)OC2(OC(C)(C3CCC(C)(C4OC(C5OC(O)(CO)C(C)CC5C)CC4C)O3)CC2C)C1C (centres undefined)"
  discrete label: "active"
- compound: "CC[C@@]1(O)C[C@H](OC2CC(N(C)C)C(O)C(C)O2)c2c(O)c3c(c(O)c2[C@H]1OC1CC(N(C)C)C(O)C(C)O1)C(=O)c1cccc(O)c1C3=O (some centres undefined)"
  discrete label: "active"
- compound: "O=Cc1ccc(C(F)(F)F)cc1.[C-]#[O+].[C-]#[O+].[C-]#[O+].[Cr]"
  discrete label: "inactive"
- compound: "COc1ccc(OC)c(/C=C/[N+](=O)[O-])c1"
  discrete label: "active"
- compound: "CCC1(OC(=O)CN)C(=O)OCc2c1cc1n(c2=O)Cc2cc3ccccc3nc2-1 (centres undefined)"
  discrete label: "active"
- compound: "Nc1nc(-c2ccccc2)c(-c2ccccc2)[se]1"
  discrete label: "inactive"
